Catalogue of protein stability index readings, one per entry.
B1: TRIM55 (parent)
chain: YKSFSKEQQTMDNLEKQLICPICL

- Variants of: B1
- Protocol description: protein stability index of a GFP-peptide fusion (GPS, HEK-293T) (PSI 1-6); higher = more stable;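 further: lentivirally expressed fusions sorted by FACS into six bins by GFP to DsRed ratio, PSI derived from sequencing read proportions per bin multiplied by bin number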
- Condition description: c terminus: a fixed tail appended

[
  {
    "Mutation annotation": "Q9K",
    "protein stability index": 2.15
  },
  {
    "Mutation annotation": "M11G",
    "protein stability index": 2.22
  },
  {
    "Mutation annotation": "P21L",
    "protein stability index": 1.67
  },
  {
    "Mutation annotation": "Y1T",
    "protein stability index": 2.62
  },
  {
    "Mutation annotation": "S5K",
    "protein stability index": 2.48
  },
  {
    "Mutation annotation": "Q17G",
    "protein stability index": 2.16
  },
  {
    "Mutation annotation": "K2Q",
    "protein stability index": 1.59
  },
  {
    "Mutation annotation": "K16Y",
    "protein stability index": 1.67
  },
  {
    "Mutation annotation": "M11R",
    "protein stability index": 2.77
  },
  {
    "Mutation annotation": "Y1D",
    "protein stability index": 3.46
  },
  {
    "Mutation annotation": "C23H",
    "protein stability index": 2.19
  },
  {
    "Mutation annotation": "M11V",
    "protein stability index": 2.68
  },
  {
    "Mutation annotation": "E7P",
    "protein stability index": 2.27
  },
  {
    "Mutation annotation": "S3C",
    "protein stability index": 2
  },
  {
    "Mutation annotation": "C20T",
    "protein stability index": 2.44
  },
  {
    "Mutation annotation": "T10E",
    "protein stability index": 2.33
  },
  {
    "Mutation annotation": "S5L",
    "protein stability index": 1.34
  },
  {
    "Mutation annotation": "S3L",
    "protein stability index": 1.69
  },
  {
    "Mutation annotation": "C20H",
    "protein stability index": 2.27
  },
  {
    "Mutation annotation": "D12P",
    "protein stability index": 2.43
  },
  {
    "Mutation annotation": "S3H",
    "protein stability index": 2.45
  },
  {
    "Mutation annotation": "Y1S",
    "protein stability index": 3.02
  },
  {
    "Mutation annotation": "M11Q",
    "protein stability index": 2.69
  },
  {
    "Mutation annotation": "C23L",
    "protein stability index": 1.72
  },
  {
    "Mutation annotation": "P21R",
    "protein stability index": 1.35
  },
  {
    "Mutation annotation": "L14K",
    "protein stability index": 2.58
  },
  {
    "Mutation annotation": "K16R",
    "protein stability index": 2.03
  },
  {
    "Mutation annotation": "I22R",
    "protein stability index": 3.81
  },
  {
    "Mutation annotation": "S3K",
    "protein stability index": 2.44
  },
  {
    "Mutation annotation": "S3G",
    "protein stability index": 1.69
  },
  {
    "Mutation annotation": "T10F",
    "protein stability index": 1.29
  },
  {
    "Mutation annotation": "T10W",
    "protein stability index": 1.77
  },
  {
    "Mutation annotation": "Q8L",
    "protein stability index": 1.75
  },
  {
    "Mutation annotation": "C23G",
    "protein stability index": 2.67
  },
  {
    "Mutation annotation": "D12Q",
    "protein stability index": 2.1
  },
  {
    "Mutation annotation": "N13H",
    "protein stability index": 1.95
  },
  {
    "Mutation annotation": "S3I",
    "protein stability index": 1.94
  },
  {
    "Mutation annotation": "F4L",
    "protein stability index": 2.27
  },
  {
    "Mutation annotation": "S3V",
    "protein stability index": 2.07
  },
  {
    "Mutation annotation": "M11D",
    "protein stability index": 2.68
  },
  {
    "Mutation annotation": "K16A",
    "protein stability index": 1.8
  },
  {
    "Mutation annotation": "L18C",
    "protein stability index": 3.72
  }
]
